Sourced from patent US20240166693A1

Please go through the items and note down their EC50.
# System: Myotonic Dystrophy 1 affected patient fibroblasts (Coriell GM04602; 1600 CTG repeats)
# assay_info: DM1 foci reduction assay (CAG10-Cy3 FISH, average foci per nucleus)
# Type: cell-based
# cond: Homo sapiens, Fibroblast, 48 h, read-out: Foci Reduction in Fibroblast EC50, 48 h (nM)

Any idea what EC50 was measured for CCN(CC)CCCC[C@H](NC(=O)[C@H](CC(C)C)NC(=O)[C@H](C)NC(=O)[C@H](Cc1ccccc1)NC(=O)c1ccc(C(C)(C)C)cc1)C(=O)N[C@@H](CO)C(=O)NCCOCCOCCOCCOCCOCCNC(=O)c1cc(NC(=O)c2cc(NC(=O)c3nc(NC(=O)c4cc(NC(=O)CCCNC(=O)c5nc(NC(=O)CCNC(=O)c6cc(NC(=O)c7nccn7C)cn6C)cn5C)cn4C)cn3C)cn2C)cn1C [Compound 113] ?
> 500 nM

Find the recorded EC50 belonging to CCN(CC)CCCC[C@H](NC(=O)[C@H](CC(C)C)NC(=O)[C@H](C)NC(=O)[C@H](Cc1ccccc1)NC(=O)c1ccc(C(C)(C)C)cc1)C(=O)N[C@@H](CO)C(=O)Nc1ccc(OCCOCCOCCOCCOCCNC(=O)CCNC(=O)c2nc(NC(=O)c3cc(NC(=O)CCNC(=O)c4nc(NC(=O)CCCNC(=O)c5cc(NC(=O)c6nc(NC(=O)CCNC(=O)c7cc(NC(=O)c8nccn8C)cn7C)cn6C)cn5C)cn4C)cn3C)cn2C)cc1 [Compound 177] and report it.
< 100 nM
